Study the reported IC50 values for Collagenase 3 (Homo sapiens) given below; they originate from different publications.
Returns: string. Value is YES if measured IC50 is below 70 nM, and NO if it is greater than or equal to it.

COMPOUND: CC#CCOc1ccc(S(=O)(=O)CC2(C(=O)NO)CCN(S(=O)(=O)c3cn(C)cn3)CC2)cc1
TARGET_OR_TEST_SYSTEM: Collagenase 3 (Homo sapiens)
DISCRETE_LABEL: YES
//
COMPOUND: O=C(NO)[C@H]1CN(C(=O)N2CCOCC2)CCN1S(=O)(=O)c1ccc(Oc2ccc(F)cc2)cc1
TARGET_OR_TEST_SYSTEM: Collagenase 3 (Homo sapiens)
DISCRETE_LABEL: YES
//
COMPOUND: CN1CCN(S(=O)(=O)c2cc(F)c(Oc3ccc(F)cc3)c(F)c2)[C@@H](C(=O)NO)C1
TARGET_OR_TEST_SYSTEM: Collagenase 3 (Homo sapiens)
DISCRETE_LABEL: YES
//
COMPOUND: Cc1noc(-c2cc3cc(-c4cc(C(=O)NCc5ccncc5)nn4C)ccc3[nH]2)n1
TARGET_OR_TEST_SYSTEM: Collagenase 3 (Homo sapiens)
DISCRETE_LABEL: YES
//
COMPOUND: CC#CCOc1ccc(S(=O)(=O)C2(C(=O)NO)CCN(Cc3cccnc3)CC2)cc1
TARGET_OR_TEST_SYSTEM: Collagenase 3 (Homo sapiens)
DISCRETE_LABEL: YES
//
COMPOUND: CNC(=O)[C@@H](NC(=O)c1ccc(-c2ccc3nc[nH]c3c2)o1)C1CCCCC1
TARGET_OR_TEST_SYSTEM: Collagenase 3 (Homo sapiens)
DISCRETE_LABEL: NO
//
COMPOUND: Cc1cc(COc2ccc(S(=O)(=O)N[C@@H]3CCOC[C@]3(C)C(=O)NO)cc2)c2ccccc2n1
TARGET_OR_TEST_SYSTEM: Collagenase 3 (Homo sapiens)
DISCRETE_LABEL: NO
//
COMPOUND: COc1ccc(S(=O)(=O)C2(C(=O)NO)CCCN(Cc3ccccc3)C2)cc1 (stereo not shown)
TARGET_OR_TEST_SYSTEM: Collagenase 3 (Homo sapiens)
DISCRETE_LABEL: NO
//
COMPOUND: CNC(=O)[C@@H](NC(=O)c1ccc(-c2ccc(NC(=O)OC)cc2)o1)C1CCCCC1
TARGET_OR_TEST_SYSTEM: Collagenase 3 (Homo sapiens)
DISCRETE_LABEL: NO
//
COMPOUND: CN(C)C(=O)CN1CCN(S(=O)(=O)c2cc(F)c(Oc3ccc(Cl)cc3)c(F)c2)[C@@H](C(=O)NO)C1
TARGET_OR_TEST_SYSTEM: Collagenase 3 (Homo sapiens)
DISCRETE_LABEL: YES
//
COMPOUND: CN(C)c1ccc2c(S(=O)(=O)N3CCN(S(=O)(=O)c4cc(F)c(Oc5ccc(Cl)cc5)c(F)c4)[C@@H](C(=O)NO)C3)cccc2c1
TARGET_OR_TEST_SYSTEM: Collagenase 3 (Homo sapiens)
DISCRETE_LABEL: YES
//
COMPOUND: O=C(NO)[C@H]1CN(C(=O)OCCN2CCCC2)CCN1S(=O)(=O)c1cc(F)c(Oc2ccc(Cl)cc2)c(F)c1
TARGET_OR_TEST_SYSTEM: Collagenase 3 (Homo sapiens)
DISCRETE_LABEL: YES

----------
pIC50: −log10 of the molar value.
Study the reported pIC50 values for Collagenase 3 (Homo sapiens, UniProt P45452) given below; they originate from different publications.
Classify as follows. Reported pIC50 greater than or equal to 7: satisfied. Reported pIC50 below: not satisfied.

MOLECULE: CNC(=O)[C@@H](NC(=O)c1ccc(-c2cccc(CNC(=O)c3cc4ccccc4o3)c2)o1)C(C)C
TARGET_OR_TEST_SYSTEM: Collagenase 3 (Homo sapiens, UniProt P45452)
DISCRETE_LABEL: satisfied
--
MOLECULE: CNC(=O)[C@@H](NC(=O)c1ccc(-c2cccc(CNC(=O)c3cccc(F)n3)c2)o1)C(C)C
TARGET_OR_TEST_SYSTEM: Collagenase 3 (Homo sapiens, UniProt P45452)
DISCRETE_LABEL: satisfied
--
MOLECULE: CC(=O)OCc1sc2nc(C(=O)NCc3ccc4c(c3)N(C(C)=O)CCO4)[nH]c(=O)c2c1C
TARGET_OR_TEST_SYSTEM: Collagenase 3 (Homo sapiens, UniProt P45452)
DISCRETE_LABEL: satisfied
--
MOLECULE: O=C(NCc1cccc(N2CCSCC2)c1)c1nc2sc3c(c2c(=O)[nH]1)CCC3
TARGET_OR_TEST_SYSTEM: Collagenase 3 (Homo sapiens, UniProt P45452)
DISCRETE_LABEL: satisfied
--
MOLECULE: Cc1noc(-c2cc3cc(-c4nc(C(=O)NCc5ccoc5)[nH]c4C)ccc3[nH]2)n1
TARGET_OR_TEST_SYSTEM: Collagenase 3 (Homo sapiens, UniProt P45452)
DISCRETE_LABEL: satisfied
--
MOLECULE: CCCCCSc1ccc(C(=O)[C@H]2CC[C@@H](Cn3nnc4ccc(C(F)(F)F)cc4c3=O)[C@@H]2C(=O)O)cc1 (racemic)
TARGET_OR_TEST_SYSTEM: Collagenase 3 (Homo sapiens, UniProt P45452)
DISCRETE_LABEL: not satisfied
--
MOLECULE: CN(C)CCS(=O)(=O)N1CCN(S(=O)(=O)c2cc(F)c(Oc3ccc(Cl)cc3)c(F)c2)[C@@H](C(=O)NO)C1
TARGET_OR_TEST_SYSTEM: Collagenase 3 (Homo sapiens, UniProt P45452)
DISCRETE_LABEL: satisfied
--
MOLECULE: O=C(NO)[C@H]1CN(S(=O)(=O)Cc2ccncc2)CCN1S(=O)(=O)c1cc(F)c(Oc2ccc(Cl)cc2)c(F)c1
TARGET_OR_TEST_SYSTEM: Collagenase 3 (Homo sapiens, UniProt P45452)
DISCRETE_LABEL: satisfied
--
MOLECULE: O=C(CC(CCn1nnc2ccccc2c1=O)C(=O)O)c1cc2cc(OCCCc3ccccc3)ccc2o1 (racemic)
TARGET_OR_TEST_SYSTEM: Collagenase 3 (Homo sapiens, UniProt P45452)
DISCRETE_LABEL: not satisfied
--
MOLECULE: O=C(NO)[C@H]1CNCCN1S(=O)(=O)c1cc(F)c(Oc2ccc(F)cc2)c(F)c1
TARGET_OR_TEST_SYSTEM: Collagenase 3 (Homo sapiens, UniProt P45452)
DISCRETE_LABEL: not satisfied
--
MOLECULE: CC(=O)N1C[C@H](C(=O)NO)[C@H](NS(=O)(=O)c2ccc(OCc3cc(C)nc4ccccc34)cc2)C1 (relative stereo)
TARGET_OR_TEST_SYSTEM: Collagenase 3 (Homo sapiens, UniProt P45452)
DISCRETE_LABEL: not satisfied
--
MOLECULE: CC#CCOc1ccc(S(=O)(=O)C2(C(=O)NO)CCN(Cc3ccc(C)cc3)CC2)cc1
TARGET_OR_TEST_SYSTEM: Collagenase 3 (Homo sapiens, UniProt P45452)
DISCRETE_LABEL: satisfied

----------
Study the reported IC50 values for Collagenase 3 (Homo sapiens) given below; they originate from different publications.

COMPOUND: O=C(NCc1ccc(F)c(Cl)c1)c1ncnc2c([N+](=O)[O-])c[nH]c12
IC50: 101 to 20000 nM
--
COMPOUND: Cc1snc2sc3c(=O)[nH]c(C(=O)NCc4ccc5c(c4)NC(=O)CO5)nc3c12
IC50: 100 to 20000 nM
--
COMPOUND: CCCCC(C(=O)NO)N1C(=O)CSC1c1cc2ccccc2o1 (centres unmarked)
IC50: 119 nM
--
COMPOUND: CNC(=O)[C@@H](NC(=O)c1ccc(-c2cccc(CNC(=O)c3ccnn3C)c2)o1)C1CCCCC1
IC50: 143 nM
--
COMPOUND: Cc1cccn(CC2(c3ccc(Cc4ccccc4)cc3)NC(=O)NC2=O)c1=O (centres unmarked)
IC50: > 100000 nM
--
COMPOUND: O=C(O)CN1CCN(S(=O)(=O)c2cc(F)c(Oc3ccc(Cl)cc3)c(F)c2)[C@@H](C(=O)NO)C1
IC50: 50 to 1000 nM
--
COMPOUND: Cc1noc(-c2cc3cc(-c4cc(C(=O)NCc5cncs5)nn4C)ccc3[nH]2)n1
IC50: 10 nM
--
COMPOUND: O=C1COc2ccc(CNC(=O)c3nc4sc5c(c4c(=O)[nH]3)CCCS(=O)(=O)C5)cc2N1
IC50: < 100 nM

----------
Study the reported IC50 values for Collagenase 3 (Homo sapiens) given below; they originate from different publications.

COMPOUND: Cc1cc(COc2ccc(S(=O)(=O)N[C@@H]3CNC[C@@H]3C(=O)NO)cc2)c2ccccc2n1 (relative stereo)
TARGET_OR_TEST_SYSTEM: Collagenase 3 (Homo sapiens)
QUALIFIER_OPERATOR: >
IC50 [µM]: 16.7
--
COMPOUND: CNC(=O)[C@@H](NC(=O)c1ccc(-c2cccc(CNC(=O)c3cccnn3)c2)o1)C(C)C
TARGET_OR_TEST_SYSTEM: Collagenase 3 (Homo sapiens)
QUALIFIER_OPERATOR: =
IC50 [µM]: 0.42
--
COMPOUND: Cc1c(C(=O)Nc2ccccc2)sc2nc(C(=O)NCc3ccc4c(c3)NC(=O)CO4)[nH]c(=O)c12
TARGET_OR_TEST_SYSTEM: Collagenase 3 (Homo sapiens)
QUALIFIER_OPERATOR: <
IC50 [µM]: 0.1
--
COMPOUND: O=C(CC(CCn1nnc2ccccc2c1=O)C(=O)O)c1noc2cc(OCc3ccc(F)cc3)ccc12 (racemic)
TARGET_OR_TEST_SYSTEM: Collagenase 3 (Homo sapiens)
QUALIFIER_OPERATOR: =
IC50 [µM]: 0.97
